Readings of pIC50 for the listed compounds
molecular target: 1,4-dihydroxy-2-naphthoyl-CoA synthase (Mycobacterium tuberculosis, UniProt P9WNP5); experiment: Inhibition of Mycobacterium tuberculosis MenB expressed in Escherichia coli BL21 (DE3) assessed as formation of DHNA-CoA from OSB-CoA by enzyme coupled-assay in presence of Escherichia coli MenE
Sequence (P9WNP5 whole entry): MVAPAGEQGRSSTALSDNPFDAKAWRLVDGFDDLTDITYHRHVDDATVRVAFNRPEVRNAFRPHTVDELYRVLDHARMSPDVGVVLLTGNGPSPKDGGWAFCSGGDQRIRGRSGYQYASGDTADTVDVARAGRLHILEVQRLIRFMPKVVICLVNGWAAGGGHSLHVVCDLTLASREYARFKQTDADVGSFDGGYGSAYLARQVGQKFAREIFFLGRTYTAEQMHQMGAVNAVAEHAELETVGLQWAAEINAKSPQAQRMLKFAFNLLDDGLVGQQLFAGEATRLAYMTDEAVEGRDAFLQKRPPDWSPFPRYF
pIC50 field: float, defined as -log10 of concentration (mol/L).

Some entries whose results are on file:
## Task What does the record list as pIC50 for CC(C)(COP(=O)(O)OP(=O)(O)OC[C@H]1O[C@@H](n2cnc3c(N)ncnc32)[C@H](O)[C@@H]1OP(=O)(O)O)[C@@H](O)C(=O)NCCC(=O)NCCSC(CC(=O)c1ccccc1I)C(=O)O (stereo partly drawn) ?
## Result 6.38

## Task CC(C)(COP(=O)(O)OP(=O)(O)OC[C@H]1O[C@@H](n2cnc3c(N)ncnc32)[C@H](O)[C@@H]1OP(=O)(O)O)[C@@H](O)C(=O)NCCC(=O)NCCSC(CC(=O)c1ccc(Cl)cc1)C(=O)O (stereo partly drawn) ?
## Result 6.33

## Task CC(C)(COP(=O)(O)OP(=O)(O)OC[C@H]1O[C@@H](n2cnc3c(N)ncnc32)[C@H](O)[C@@H]1OP(=O)(O)O)[C@@H](O)C(=O)NCCC(=O)NCCSC(CC(=O)c1cccc(Cl)c1)C(=O)O (stereo partly drawn) ?
## Result 4.85

## Task COc1ccc(C(=O)CC(SCCNC(=O)CCNC(=O)[C@H](O)C(C)(C)COP(=O)(O)OP(=O)(O)OC[C@H]2O[C@@H](n3cnc4c(N)ncnc43)[C@H](O)[C@@H]2OP(=O)(O)O)C(=O)O)cc1 (stereo partly drawn) ?
## Result 4.47

## Task CC(C)(COP(=O)(O)OP(=O)(O)OC[C@H]1O[C@@H](n2cnc3c(N)ncnc32)[C@H](O)[C@@H]1OP(=O)(O)O)[C@@H](O)C(=O)NCCC(=O)NCCSC(CC(=O)c1ccccc1Cl)C(=O)O (stereo partly drawn) ?
## Result 6.99

// next entry
## Task What does the record list as pIC50 for "CC(C)(COP(=O)(O)OP(=O)(O)OC[C@H]1O[C@@H](n2cnc3c(N)ncnc32)[C@H](O)[C@@H]1OP(=O)(O)O)[C@@H](O)C(=O)NCCC(=O)NCCSC(=O)CCC(=O)c1ccc(Cl)cc1Cl" ?
## Result 5.66

---

target: 1,4-dihydroxy-2-naphthoyl-CoA synthase (Mycobacterium tuberculosis, UniProt P9WNP5); test: Inhibition of Mycobacterium tuberculosis MenB expressed in Escherichia coli BL21 (DE3) by Lineweaver-Burk plot analysis
Readings of Ki for the listed compounds
Respond with a number, then the unit of measure.

Some entries whose results are on file:
## Task Notebook: pull reported Ki for 1,4-dihydroxy-2-naphthoyl-CoA synthase (Mycobacterium tuberculosis, UniProt P9WNP5), entry CC(C)(COP(=O)(O)OP(=O)(O)OC[C@H]1O[C@@H](n2cnc3c(N)ncnc32)[C@H](O)[C@@H]1OP(=O)(O)O)[C@@H](O)C(=O)NCCC(=O)NCCSC(CC(=O)c1ccc(Cl)cc1)C(=O)O (stereo partly drawn)
## Result 350 nM

## Task CC(C)(COP(=O)(O)OP(=O)(O)OC[C@H]1O[C@@H](n2cnc3c(N)ncnc32)[C@H](O)[C@@H]1OP(=O)(O)O)[C@@H](O)C(=O)NCCC(=O)NCCSC(CC(=O)c1ccccc1Cl)C(=O)O (stereo partly drawn) ?
## Result 97 nM

New cases:
## Task Notebook: pull reported Ki for 1,4-dihydroxy-2-naphthoyl-CoA synthase (Mycobacterium tuberculosis, UniProt P9WNP5), entry CC(C)(COP(=O)(O)OP(=O)(O)OC[C@H]1O[C@@H](n2cnc3c(N)ncnc32)[C@H](O)[C@@H]1OP(=O)(O)O)[C@@H](O)C(=O)NCCC(=O)NCCSC(CC(=O)c1ccc(Cl)cc1Cl)C(=O)O (stereo partly drawn)
## Result 49 nM

---

Readings of IC50 for the listed compounds
target: 1,4-dihydroxy-2-naphthoyl-CoA synthase (Mycobacterium tuberculosis, UniProt P9WNP5); test: Inhibition of Mycobacterium tuberculosis MenB expressed in Escherichia coli BL21 (DE3) assessed as formation of DHNA-CoA from OSB-CoA by enzyme coupled-assay in presence of Escherichia coli MenE preincubated for 1 hr
Write the value in µM as a bare number.

Some entries whose results are on file:
## Task What does the record list as IC50 for C[C@H](NC(CC(=O)c1ccccc1Cl)C(=O)O)c1ccccc1 (stereo partly specified) ?
## Result 8.4

## Task C[C@H](NC(CC(=O)c1ccccc1C(F)(F)F)C(=O)O)c1ccccc1 (stereo partly specified) ?
## Result 3.2

## Task C[C@H](NC(CC(=O)c1ccc(F)cc1)C(=O)O)c1ccccc1 (stereo partly specified) ?
## Result 14.4

## Task C[C@H](NC(CC(=O)c1ccc(Cl)cc1)C(=O)O)c1ccccc1 (stereo partly specified) ?
## Result 11.7

New cases:
## Task What does the record list as IC50 for C[C@H](NC(CC(=O)c1ccccc1)C(=O)O)c1ccccc1 (stereo partly specified) ?
## Result 52.7

---

experiment: Half life of the compound at pH 7.4; assay type: physicochemical
measure: half-life (h)
Write the value in h as a bare number.

Some entries whose results are on file:
## Task What does the record list as half-life for C[C@H](NC(CC(=O)c1ccccc1Cl)C(=O)O)c1ccccc1 (stereo partly specified) ?
## Result 0.4

## Task C[C@H](NC(CC(=O)c1ccccc1C(F)(F)F)C(=O)O)c1ccccc1 (stereo partly specified) ?
## Result 0.2

New cases:
## Task What does the record list as half-life for C[C@H](NC(CC(=O)c1ccc(F)cc1)C(=O)O)c1ccccc1 (stereo partly specified) ?
## Result 12.2

## Task C[C@H](NC(CC(=O)c1ccccc1)C(=O)O)c1ccccc1 (stereo partly specified) ?
## Result 11.6

## Task COc1ccccc1C(=O)CC(N[C@@H](C)c1ccccc1)C(=O)O (stereo partly specified) ?
## Result 11.6

## Task C[C@H](NC(CC(=O)c1ccc(Cl)cc1)C(=O)O)c1ccccc1 (stereo partly specified) ?
## Result 6.8

---

target: UniProt P9WNP5; assay: Inhibition of Mycobacterium tuberculosis MenB expressed in Escherichia coli BL21 (DE3) assessed as formation of DHNA-CoA from OSB-CoA at 50 uM by enzyme coupled-assay in presence of Escherichia coli MenE
The source made the active and inactive calls. The rule behind the calls is not given here.
Valid outcomes are listed here; reply with one: active, inactive

## Task In this assay, the call recorded for C[C@H](NC(CC(O)c1ccc(Cl)cc1)C(=O)O)c1ccccc1 (some centres not stated) was what?
## Result inactive

## Task C[C@H](NC(C(=O)O)C(C)(C)C(=O)c1ccccc1)c1ccccc1 (some centres not stated) ?
## Result inactive

## Task CC(C(=O)c1ccc(Cl)cc1)C(N[C@@H](C)c1ccccc1)C(=O)O (some centres not stated) ?
## Result active

## Task C[C@H](SC(CC(=O)c1ccc(Cl)cc1)C(=O)O)c1ccccc1 (some centres not stated) ?
## Result inactive

## Task O=C(CC1N=C(c2ccccc2)OC1=O)c1ccc(Cl)cc1 (configuration not stated) ?
## Result inactive

## Task O=C(CC(NC(=O)c1ccccc1)C(=O)O)c1ccc(Cl)cc1 (configuration not stated) ?
## Result inactive

## Task C[C@H](NC(C(=O)O)C(F)(F)C(=O)c1ccc(Cl)cc1)c1ccccc1 (some centres not stated) ?
## Result inactive

---

Readings of IC50 for the listed compounds
target: 1,4-dihydroxy-2-naphthoyl-CoA synthase (Mycobacterium tuberculosis); test: Inhibition of Mycobacterium tuberculosis MenB expressed in Escherichia coli BL21 (DE3) assessed as formation of DHNA-CoA from OSB-CoA by enzyme coupled-assay in presence of Escherichia coli MenE
Write the value in µM as a bare number.

## Task What does the record list as IC50 for CC(C)(COP(=O)(O)OP(=O)(O)OC[C@H]1O[C@@H](n2cnc3c(N)ncnc32)[C@H](O)[C@@H]1OP(=O)(O)O)[C@@H](O)C(=O)NCCC(=O)NCCSC(CC(=O)c1ccccc1Br)C(=O)O (some centres not stated) ?
## Result 0.135

New cases:
## Task What does the record list as IC50 for CC(C)(COP(=O)(O)OP(=O)(O)OC[C@H]1O[C@@H](n2cnc3c(N)ncnc32)[C@H](O)[C@@H]1OP(=O)(O)O)[C@@H](O)C(=O)NCCC(=O)NCCSC(CC(=O)c1ccc(Cl)cc1Cl)C(=O)O (some centres not stated) ?
## Result 0.106

## Task COc1ccccc1C(=O)CC(SCCNC(=O)CCNC(=O)[C@H](O)C(C)(C)COP(=O)(O)OP(=O)(O)OC[C@H]1O[C@@H](n2cnc3c(N)ncnc32)[C@H](O)[C@@H]1OP(=O)(O)O)C(=O)O (some centres not stated) ?
## Result 12.1

## Task CC(C)(COP(=O)(O)OP(=O)(O)OC[C@H]1O[C@@H](n2cnc3c(N)ncnc32)[C@H](O)[C@@H]1OP(=O)(O)O)[C@@H](O)C(=O)NCCC(=O)NCCSC(CC(=O)c1ccccc1[N+](=O)[O-])C(=O)O (some centres not stated) ?
## Result 0.154

## Task CC(C)(COP(=O)(O)OP(=O)(O)OC[C@H]1O[C@@H](n2cnc3c(N)ncnc32)[C@H](O)[C@@H]1OP(=O)(O)O)[C@@H](O)C(=O)NCCC(=O)NCCSC(CC(=O)c1ccccc1F)C(=O)O (some centres not stated) ?
## Result 0.204
